# System: PANC-1
# ASSAY PROTOCOL: SRB colorimetric assay of cell growth and viability, PANC-1
# Assay type: cell-based, human
# CONDITION INFO: 48 hours exposure
Where a SMILES comes first, the peptide text is derived from it. Bridges are numbered along the chain shown (N, C = ends). [ ]: non-standard residue; d: D form. The star is where a group is joined. d(aIle) = CC[C@H](C)[C@@H](N)C(=O)O; d(aThr) = C[C@@H](O)[C@@H](N)C(=O)O; Hexanoyl(5-Me) = CC(C)CCCC(=O)*; Orn = NCCC[C@H](N)C(=O)O; Dhb = C/C=C(\N)C(=O)O
TGI PANC-1: recorded values
The reply should be a number in Molar, with the unit left off.

Here's what some known entries look like.
| MOLECULE | TARGET UNDER TEST | TGI PANC-1, Molar |
| --- | --- | --- |
| C/C=C1\NC(=O)[C@H](Cc2ccccc2)NC(=O)[C@@H](C(C)C)NC(=O)[C@@H]([C@@H](C)CC)NC(=O)[C@H](NC(=O)[C@H](NC(=O)[C@H](CCCN)NC(=O)[C@H]2CCCN2C(=O)[C@H](NC(=O)[C@@H](NC(=O)[C@@H](NC(=O)[C@H]2CCCN2C(=O)CCCC(C)C)[C@@H](C)O)C(C)C)C(C)C)[C@@H](C)CC)[C@@H](C)OC(=O)[C@H](C(C)C)NC1=O [Compound 37, [D-Pro^13]-KF] | PANC-1 | 3.12E−08 |
| C/C=C1\NC(=O)[C@H](Cc2ccccc2)NC(=O)[C@@H](C(C)C)NC(=O)[C@@H]([C@@H](C)CC)NC(=O)[C@H](NC(=O)[C@H](NC(=O)[C@H](CCCN)NC(=O)[C@H]2CCCN2C(=O)[C@H](NC(=O)CCCC(C)C)C(C)C)[C@@H](C)CC)[C@@H](C)OC(=O)[C@H](C(C)C)NC1=O [Compound 31, [noVal^11, noThr^12, noD-Val^13]-KF] ({Hexanoyl(5-Me)}-[dV][dP][Orn][d(aIle)][d(aThr)][d(aIle)][dV]F[Dhb]V; ester 5-C) | PANC-1 | 3.63E−06 |

Suppose we examine the molecule C/C=C1\NC(=O)[C@H](Cc2ccccc2)NC(=O)[C@@H](C(C)C)NC(=O)[C@@H]([C@@H](C)CC)NC(=O)[C@H](NC(=O)[C@H](NC(=O)[C@H](CCCN)NC(=O)[C@H]2CCCN2C(=O)[C@H](NC(=O)[C@@H](NC(=O)[C@@H](NC(=O)[C@H](NC(=O)CCCCC(C)=O)C(C)C)[C@@H](C)O)C(C)C)C(C)C)[C@@H](C)CC)[C@@H](C)OC(=O)[C@H](C(C)C)NC1=O [Compound 27, [6-OHep^14]-KF] ; what TGI PANC-1 value has been reported? 6.70E−06

====

# Test system: LNCaP
# ASSAY PROTOCOL: SRB colorimetric assay of cell growth and viability, LNCaP
# Format: cell-based, human
# CONDITION INFO: 48 hours exposure; read-out: LC50 LN-caP
Where a SMILES comes first, the peptide text is derived from it. Bridges are numbered along the chain shown (N, C = ends). [ ]: non-standard residue; d: D form. The star is where a group is joined. d(aIle) = CC[C@H](C)[C@@H](N)C(=O)O; d(aThr) = C[C@@H](O)[C@@H](N)C(=O)O; Hexanoyl(5-Me) = CC(C)CCCC(=O)*; Orn = NCCC[C@H](N)C(=O)O; Dhb = C/C=C(\N)C(=O)O
MEASUREMENT TYPE: CC50 (µM)
The reply should be a number in µM, with the unit left off.

| COMPOUND | REPORTED |
| --- | --- |
| C/C=C1\NC(=O)[C@H](Cc2ccccc2)NC(=O)[C@@H](C(C)C)NC(=O)[C@@H]([C@@H](C)CC)NC(=O)[C@H](NC(=O)[C@H](NC(=O)[C@H](CCCN)NC(=O)[C@H]2CCCN2C(=O)[C@H](NC(=O)[C@H](CCC(N)=O)NC(=O)[C@@H](NC(=O)[C@H](NC(=O)CCCC(C)C)C(C)C)[C@@H](C)O)C(C)C)[C@@H](C)CC)[C@@H](C)OC(=O)[C@H](C(C)C)NC1=O [Compound 48, [Gln^11]-KF] ({Hexanoyl(5-Me)}-[dV]TQ[dV][dP][Orn][d(aIle)][d(aThr)][d(aIle)][dV]F[Dhb]V; ester 8-C) | 6.64 |

In the following, a different compound is considered.
API: value(readout= CC50, system= LNCaP, query= C/C=C1\NC(=O)[C@H](Cc2ccccc2)NC(=O)[C@@H](C(C)C)NC(=O)[C@@H]([C@@H](C)CC)NC(=O)[C@H](NC(=O)[C@H](NC(=O)[C@H](CCCN)NC(=O)[C@H]2CCCN2C(=O)[C@H](NC(=O)[C@@H](NC(=O)[C@@H](NC(=O)[C@H](NC(=O)CCCCC(C)=O)C(C)C)[C@@H](C)O)C(C)C)C(C)C)[C@@H](C)CC)[C@@H](C)OC(=O)[C@H](C(C)C)NC1=O [Compound 27, [6-OHep^14]-KF] ) 6.7

====

# System: IGROV-1
# ASSAY PROTOCOL: SRB colorimetric assay of cell growth and viability, IGROV-1
# Assay type: cell-based, human
# CONDITION INFO: IGROV; 48 hours exposure
Where a SMILES comes first, the peptide text is derived from it. Bridges are numbered along the chain shown (N, C = ends). [ ]: non-standard residue; d: D form. The star is where a group is joined. Bip = N[C@@H](Cc1ccc(-c2ccccc2)cc1)C(=O)O; d(aIle) = CC[C@H](C)[C@@H](N)C(=O)O; d(aThr) = C[C@@H](O)[C@@H](N)C(=O)O; Hexanoyl(5-Me) = CC(C)CCCC(=O)*; Phg = N[C@H](C(=O)O)c1ccccc1; Orn = NCCC[C@H](N)C(=O)O; Dhb = C/C=C(\N)C(=O)O
GI50: recorded values
The reply should be a number in nM, with the unit left off.

Here's what some known entries look like.
| COMPOUND | QUANTITY UNIT | REPORTED |
| --- | --- | --- |
| C/C=C1\NC(=O)[C@H](Cc2cccc(Cl)c2)NC(=O)[C@@H](C(C)C)NC(=O)[C@@H]([C@@H](C)CC)NC(=O)[C@H](NC(=O)[C@H](NC(=O)[C@H](CCCN)NC(=O)[C@H]2CCCN2C(=O)[C@H](NC(=O)[C@@H](NC(=O)[C@@H](NC(=O)[C@H](NC(=O)CCCC(C)C)C(C)C)[C@@H](C)O)C(C)C)C(C)C)[C@@H](C)CC)[C@@H](C)OC(=O)[C@H](C(C)C)NC1=O [Compound 82, [Phe(3-Cl)^3]-KF] | nM | 69.5 |
| C/C=C1\NC(=O)[C@H](Cc2ccccc2)NC(=O)[C@@H](C(C)C)NC(=O)[C@@H]([C@@H](C)CC)NC(=O)[C@H](NC(=O)[C@H](NC(=O)[C@H](CCCN)NC(=O)[C@H]2CCCN2C(=O)[C@H](NC(=O)[C@@H](NC(=O)[C@H](CCCN)NC(=O)[C@H](NC(=O)CCCC(C)C)C(C)C)C(C)C)C(C)C)[C@@H](C)CC)[C@@H](C)OC(=O)[C@H](C(C)C)NC1=O [Compound 116, [Orn^12]-KF] ({Hexanoyl(5-Me)}-[dV][Orn]V[dV][dP][Orn][d(aIle)][d(aThr)][d(aIle)][dV]F[Dhb]V; ester 8-C) | nM | 2050 |
| C/C=C1\NC(=O)[C@H](Cc2ccc(Cl)cc2)NC(=O)[C@@H](C(C)C)NC(=O)[C@@H]([C@@H](C)CC)NC(=O)[C@H](NC(=O)[C@H](NC(=O)[C@H](CCCN)NC(=O)[C@H]2CCCN2C(=O)[C@H](NC(=O)[C@@H](NC(=O)[C@@H](NC(=O)[C@H](NC(=O)CCCC(C)C)C(C)C)[C@@H](C)O)C(C)C)C(C)C)[C@@H](C)CC)[C@@H](C)OC(=O)[C@H](C(C)C)NC1=O [Compound 83, [Phe(4-Cl)^3]-KF] | nM | 37.1 |
| C/C=C1\NC(=O)[C@H](Cc2ccccc2)NC(=O)[C@@H](C(C)C)NC(=O)[C@@H]([C@@H](C)CC)NC(=O)[C@H](NC(=O)[C@H](NC(=O)[C@H](CCCN)NC(=O)[C@H]2CCCN2C(=O)[C@H](NC(=O)[C@@H](NC(=O)[C@H](CCC(=O)O)NC(=O)[C@H](NC(=O)CCCC(C)C)C(C)C)C(C)C)C(C)C)[C@@H](C)CC)[C@@H](C)OC(=O)[C@H](C(C)C)NC1=O [Compound 115, [Glu^12]-KF] ({Hexanoyl(5-Me)}-[dV]EV[dV][dP][Orn][d(aIle)][d(aThr)][d(aIle)][dV]F[Dhb]V; ester 8-C) | nM | 1540 |
| C/C=C1\NC(=O)[C@H](c2ccccc2)NC(=O)[C@@H](C(C)C)NC(=O)[C@@H]([C@@H](C)CC)NC(=O)[C@H](NC(=O)[C@H](NC(=O)[C@H](CCCN)NC(=O)[C@H]2CCCN2C(=O)[C@H](NC(=O)[C@@H](NC(=O)[C@@H](NC(=O)[C@H](NC(=O)CCCC(C)C)C(C)C)[C@@H](C)O)C(C)C)C(C)C)[C@@H](C)CC)[C@@H](C)OC(=O)[C@H](C(C)C)NC1=O [Compound 87, [Phg^3]-KF] ({Hexanoyl(5-Me)}-[dV]TV[dV][dP][Orn][d(aIle)][d(aThr)][d(aIle)][dV][Phg][Dhb]V; ester 8-C) | nM | 919 |

In the following, a different compound is considered.
API: value(readout= GI50, system= IGROV-1, query= C/C=C1\NC(=O)[C@H](Cc2ccc(-c3ccccc3)cc2)NC(=O)[C@@H](C(C)C)NC(=O)[C@@H]([C@@H](C)CC)NC(=O)[C@H](NC(=O)[C@H](NC(=O)[C@H](CCCN)NC(=O)[C@H]2CCCN2C(=O)[C@H](NC(=O)[C@@H](NC(=O)[C@@H](NC(=O)[C@H](NC(=O)CCCC(C)C)C(C)C)[C@@H](C)O)C(C)C)C(C)C)[C@@H](C)CC)[C@@H](C)OC(=O)[C@H](C(C)C)NC1=O [Compound 86, [Bip^3]-KF] ({Hexanoyl(5-Me)}-[dV]TV[dV][dP][Orn][d(aIle)][d(aThr)][d(aIle)][dV][Bip][Dhb]V; ester 8-C) ) 181
